# method.notes: inhibitors of TNFa-induced NFkB p65 translocation, primary screen, imaging, HUVEC, MLSMR starter and 10KST1 sets (AID 438);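 also: compound added about 3h40 before a 20 min TNFalpha stimulation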
# measurement.parameters: HUVEC TNFa-induced p65 nuclear translocation; measured here: nuclei count (cytotoxicity indicator), at 2.08 µM
Would you mind labelling by cell count? At or over 400 is 1.0, under is 0.0.

- compound: "O=C1C2C3C=CC(C3)C2C(=O)N1Cc1ccccc1 (stereo not drawn)"
  class.label: 1.0
- compound: "Cc1[nH]c(=O)[nH]c(=O)c1S(=O)(=O)N(C)Cc1ccccc1"
  class.label: 1.0
- compound: "COc1ccc(CN2C(=O)CN=C2Nc2ccc(C)cc2C)cc1"
  class.label: 1.0
- compound: "CC(C)[C@H](NC(=O)[C@@H]1CSCN1C(=O)OC(C)(C)C)C(=O)NCC1CCC(C(=O)O)CC1 (stereo partly drawn)"
  class.label: 0.0
- compound: "O=C(Nc1ccon1)c1cc(-c2ccccc2)nc2ccccc12"
  class.label: 0.0
- compound: "CCOc1ccc2nc(N3CCC(C(=O)N4CCN(C5CCCCC5)CC4)CC3)sc2c1"
  class.label: 1.0
- compound: "CC(=O)c1ccc(NC(=O)CCc2c(C)nc3ncnn3c2C)cc1"
  class.label: 0.0
- compound: "Clc1cccc(Cl)c1COc1ccncc1"
  class.label: 0.0
- compound: "Cc1cccc(-n2ncc3c(N)ncnc32)c1"
  class.label: 1.0
- compound: "O=C(O)C1CCCN1c1ncnc2c1oc1ccccc12 (stereo not drawn)"
  class.label: 1.0
- compound: "COc1ccc(S(=O)(=O)N(C)c2ccc(C(=O)N3CCOCC3)cc2)cc1"
  class.label: 0.0
- compound: "O=C(CN1C(=O)CCSc2ccccc21)Nc1ccc(F)cc1"
  class.label: 0.0
- compound: "O=C(NCc1ccc2c(c1)OCO2)C1CCCN(S(=O)(=O)c2cccc3cccnc23)C1 (stereo not drawn)"
  class.label: 1.0
- compound: "Cc1cc(C)n(C(=O)C23CC4CC(CC(C4)C2)C3)n1"
  class.label: 1.0
- compound: "CCCCN(CC)S(=O)(=O)c1ccc2c(c1)CCCN2C(C)=O"
  class.label: 1.0
- compound: "Cn1cnnc1Sc1nc2c(c(=O)n(C)c(=O)n2C)n1Cc1ccccc1Cl"
  class.label: 0.0
- compound: "Cc1ccc(CS(=O)(=O)Cc2ccc(C(=O)NCc3ccccn3)o2)cc1"
  class.label: 1.0
- compound: "O=C(NCC(c1cccnc1)N1CCN(c2ccc(F)cc2)CC1)OCc1ccccc1 (stereo not drawn)"
  class.label: 1.0
- compound: "O=C1CC(c2cccnc2)c2cc3c(cc2N1)OCO3 (stereo not drawn)"
  class.label: 1.0
- compound: "CCOC(=O)C1CCN(C(=O)CSc2cc(=O)n(CC)c3ccccc23)CC1"
  class.label: 0.0
- compound: "COc1ccc(OC)c(C(=O)c2nc3c(n2O)CCCCC3)c1"
  class.label: 0.0
- compound: "COc1ccc(CCNC(=O)CSc2nnc(CNc3ccc(Cl)cc3)o2)cc1OC"
  class.label: 0.0

###

# method.notes: inhibitors of TNFa-induced NFkB p65 translocation, primary screen, imaging, HUVEC, MLSMR starter and 10KST1 sets (AID 438);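 also: compound added about 3h40 before a 20 min TNFalpha stimulation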;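 as to inhibition: signal is the nuclear over cytoplasmic p65 intensity ratio per well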
# measurement.parameters: HUVEC TNFa-induced p65 nuclear translocation; at 2 µM, stronger effect = higher value, 0% TNFa-plus-vehicle, 100% no-TNFa wells
Recorded inhibition by entry

- compound: "COc1ccccc1OCCNC(=O)c1cccs1"
  inhibition (%): 4.3
- compound: "Cc1cccc(Cn2c(=O)n(Cc3ccco3)c(=O)c3ccccc32)c1"
  inhibition (%): 0.5
- compound: "COc1ccc2c(c1)Sc1ccccc1N2CCN(C)C"
  inhibition (%): -8.8
- compound: "Cc1cc(C)n(C(=O)CCCCCC(=O)n2nc(C)cc2C)n1"
  inhibition (%): 5.5
- compound: "CC(C)(C)NC(=O)C(Cc1ccccc1)NS(=O)(=O)c1cccc2nsnc12 (configuration not stated)"
  inhibition (%): -19.8
- compound: "O=C(NCc1cccnc1)c1cn(CCc2ccccc2)nn1"
  inhibition (%): -0.4
- compound: "Cc1nc(NC2=NCN(CCc3ccccc3)CN2)nc2c(C)cccc12"
  inhibition (%): 46.4
- compound: "CC1=C(C(=O)OC(C)C)C(c2cccc(F)c2)n2ncnc2N1 (configuration not stated)"
  inhibition (%): 0
- compound: "Cc1nn(-c2ccc(F)cc2)c(C)c1NS(=O)(=O)c1ccc(Cl)cc1"
  inhibition (%): 4.2
- compound: "O=C(CCSc1ccccc1)Nc1ccc(S(=O)(=O)N2CCOCC2)cc1"
  inhibition (%): 5.2
- compound: "CN1CCc2nc(SCC(=O)Nc3ccc(F)cc3)c(C#N)cc2C1"
  inhibition (%): -14.8
- compound: "CCOC(=O)N1CCN(C(=O)COc2cc(=O)n(C)c3ccccc23)CC1"
  inhibition (%): 1.7
- compound: "CCN(C(=O)c1cccs1)c1nnc(-c2ccncc2)s1"
  inhibition (%): -7.1
- compound: "O=C(C1CCC(CNS(=O)(=O)c2cccc3cccnc23)CC1)N1CCCC1 (configuration not stated)"
  inhibition (%): 5.5
- compound: "Cc1c(C(=O)O)sc2nc3n(c(=O)c12)CCC(C)CC3 (configuration not stated)"
  inhibition (%): -10.5
- compound: "Cn1c(C(=O)OC(C(=O)NC2CCCC2)c2cccnc2)cc2sccc21 (configuration not stated)"
  inhibition (%): 4
- compound: "CCCC(=O)Nc1cc(-c2nnc(OC)c3ccccc23)ccc1N1CCOCC1"
  inhibition (%): -9.8
- compound: "CC(=O)C1=C(C)OC(N)=C(C#N)C1c1ccncc1 (configuration not stated)"
  inhibition (%): 3.7
- compound: "CCOC(=O)c1cccc(NC(=O)CSc2nc3ccccc3c(=O)n2CC)c1"
  inhibition (%): 4.2
- compound: "COc1ccc(OC)c(NC(=O)CCN2CCN(c3ccccc3F)CC2)c1"
  inhibition (%): 10.1
- compound: "COCCNC(=O)c1ccc(CS(=O)(=O)c2c(Cl)cccc2Cl)o1"
  inhibition (%): -6.8
- compound: "CCc1cc2c(=O)c(-c3nc4ccccc4[nH]3)coc2c(CN2CCC(C)CC2)c1O"
  inhibition (%): -7.9
- compound: "C=CCn1c(SCc2cc(=O)n3ccsc3n2)nnc1C1CCCCC1"
  inhibition (%): 3.8
- compound: "Cc1cc(=O)n(CC(C)C)c(O)c1C#N"
  inhibition (%): 1.5
- compound: "CC(=O)N1c2c(cc(Br)cc2S(=O)(=O)N2CCN(c3ccccn3)CC2)CC1C (configuration not stated)"
  inhibition (%): -15.4
- compound: "O=C(c1ccc(Cl)cc1)N1CCCOC1"
  inhibition (%): -9.7
- compound: "CCOc1cc(C(=O)NCC2CCCO2)cc(OCC)c1OCC (configuration not stated)"
  inhibition (%): -9.3
- compound: "Nc1c(N2CCCCC2)c(=O)[nH]c(=O)n1-c1ccccc1"
  inhibition (%): 2.4
- compound: "CC12C(=O)N(CCC(=O)O)C(=O)C1C1C=CC2C1 (configuration not stated)"
  inhibition (%): 23.6
- compound: "CC1(C)CC(=O)C=C(Nc2ccc(F)cc2)C1"
  inhibition (%): 10.9
- compound: "COC(=O)C1=CN(C(C)C)C=C(C(=O)OC)C1c1cc2c(cc1Br)OCO2"
  inhibition (%): 8.1
- compound: "CCOc1ccc(OCC)c(NC(=O)CN2CCN(C(=O)c3ccco3)CC2)c1"
  inhibition (%): -19.4
- compound: "Cc1nc(CNS(=O)(=O)c2cc(C)c(C)cc2C)cs1"
  inhibition (%): 6.3
- compound: "O=C(Nc1ccc2c(c1)OCO2)c1cccc(Cl)c1"
  inhibition (%): 1.4
- compound: "COc1ccccc1CC(NC(C)=O)C(=O)NC1CCN(c2nnnn2-c2ccccc2)CC1 (configuration not stated)"
  inhibition (%): -5.5
- compound: "COc1ccc(OC)c(S(=O)(=O)Nc2ccc(O)c3ccccc23)c1"
  inhibition (%): -10.1
- compound: "CCOc1ccc(C2CC(c3ccccc3C)n3nc(N)nc3N2)cc1 (configuration not stated)"
  inhibition (%): 5
- compound: "CCn1c(SCC(=O)Nc2ccc(C(C)=O)cc2)nc2ccccc21"
  inhibition (%): 14.4
- compound: "CCOC(=O)C1CCN(S(=O)(=O)c2cc(Cl)c(C)cc2OC)CC1"
  inhibition (%): -9.5
- compound: "Cc1cccc(C)c1NC(=O)COC(=O)c1nonc1N"
  inhibition (%): -1.3
- compound: "O=C(CC(CC(=O)c1ccccc1)C(=O)O)c1ccccc1"
  inhibition (%): 8.7
- compound: "CCOc1ccccc1C(=O)NCCC(=O)O"
  inhibition (%): -5.1
- compound: "C=Cn1c(N2CCOCC2)nc2c1c(=O)[nH]c(=O)n2C"
  inhibition (%): 0.9
- compound: "Cc1ccc(S(=O)(=O)N(CC(=O)N2CCC(C(N)=O)CC2)Cc2ccc(F)cc2)cc1"
  inhibition (%): 3.5
- compound: "CC(=O)N(c1ccc(Br)cc1)C1C=CS(=O)(=O)C1 (configuration not stated)"
  inhibition (%): 3.9
- compound: "CCOCCCNC(=O)C1CCC(=O)N1CCc1ccccc1 (configuration not stated)"
  inhibition (%): 2.7
- compound: "CCN(C(=O)c1ccnc(C(C)(C)C)c1)c1ccccc1"
  inhibition (%): 4.4
